Hey, just so you know, these numbers are from patent US9901592B2.

test system: S. pneumoniae; format: cell-based; conditions: strain 3665 Macrolide-R [mef(A)]; 4 × MIC
MEASUREMENT_NAME: single step mutation frequency

A selection of reference data follows.
COMPOUND: CC[C@H]1OC(=O)[C@H](C)C(=O)[C@H](C)[C@@H](O[C@@H]2O[C@H](C)C[C@H](N(C)C)[C@H]2O)[C@](C)(OC)C[C@@H](C)C(=O)[C@H](C)[C@H]2N(CCCCn3cnc(-c4cccnc4)c3)C(=O)O[C@]12C
ASSAYED_TARGET: S. pneumoniae
DATA_VALUE: 2.5 × 10^−9
//
COMPOUND: CC[C@H]1OC(=O)[C@@](C)(F)C(=O)[C@H](C)[C@@H](OC2OC(C)CC(N(C)C)C2O)[C@@](C)(OC)C[C@@H](C)C(=O)[C@H](C)[C@H]2N(CCCCn3cc(-c4cccc(N)c4)nn3)C(=O)O[C@]12C (stereo partly shown)
ASSAYED_TARGET: S. pneumoniae
DATA_VALUE: 1.4 × 10^−7
//
COMPOUND: CC[C@H]1OC(=O)[C@H](C)[C@@H](O[C@H]2C[C@@](C)(OC)[C@@H](O)[C@H](C)O2)[C@H](C)[C@@H](O[C@@H]2O[C@H](C)C[C@H](N(C)C)[C@H]2O)[C@](C)(OC)C[C@@H](C)C(=O)[C@H](C)[C@@H](O)[C@]1(C)O
ASSAYED_TARGET: S. pneumoniae
DATA_VALUE: <5.0 × 10^−10

Query compound follows.
Prompt: May I ask what single step mutation frequency has been recorded for CCC[C@@H]1C[C@@H](C(=O)N[C@@H]([C@H]2O[C@H](SC)[C@H](O)[C@@H](O)[C@H]2O)[C@H](C)Cl)N(C)C1 ?
Completion: <2.4 × 10^−10

---

# maps each entry to its single step mutation frequency
tested on: S. pyogenes; format: cell-based; conditions: strain 2094 Macrolide-R [erm(A)]; 2 × MIC

A selection of reference data follows.
COMPOUND: CCC[C@@H]1C[C@@H](C(=O)N[C@@H]([C@H]2O[C@H](SC)[C@H](O)[C@@H](O)[C@H]2O)[C@H](C)Cl)N(C)C1
single step mutation frequency: 2.1 × 10^−7

COMPOUND: CC[C@H]1OC(=O)[C@@](C)(F)C(=O)[C@H](C)[C@@H](OC2OC(C)CC(N(C)C)C2O)[C@@](C)(OC)C[C@@H](C)C(=O)[C@H](C)[C@H]2N(CCCCn3cc(-c4cccc(N)c4)nn3)C(=O)O[C@]12C (stereo partly shown)
single step mutation frequency: 5.3 × 10^−8

COMPOUND: CC[C@H]1OC(=O)[C@H](C)C(=O)[C@H](C)[C@@H](O[C@@H]2O[C@H](C)C[C@H](N(C)C)[C@H]2O)[C@](C)(OC)C[C@@H](C)C(=O)[C@H](C)[C@H]2N(CCCCn3cnc(-c4cccnc4)c3)C(=O)O[C@]12C
single step mutation frequency: 7.7 × 10^−8

Query compound follows.
Prompt: May I ask what single step mutation frequency has been recorded for CC[C@H]1OC(=O)[C@H](C)[C@@H](O[C@H]2C[C@@](C)(OC)[C@@H](O)[C@H](C)O2)[C@H](C)[C@@H](O[C@@H]2O[C@H](C)C[C@H](N(C)C)[C@H]2O)[C@](C)(OC)C[C@@H](C)C(=O)[C@H](C)[C@@H](O)[C@]1(C)O ?
Completion: 1.7 × 10^−7

---

tested on: S. pyogenes; type: cell-based; settings: strain 237 Macrolide-R [L4 mutation]; 4 × MIC
MEASUREMENT_NAME: single step mutation frequency

A selection of reference data follows.
MOLECULE: CC[C@H]1OC(=O)[C@H](C)[C@@H](O[C@H]2C[C@@](C)(OC)[C@@H](O)[C@H](C)O2)[C@H](C)[C@@H](O[C@@H]2O[C@H](C)C[C@H](N(C)C)[C@H]2O)[C@](C)(OC)C[C@@H](C)C(=O)[C@H](C)[C@@H](O)[C@]1(C)O
ASSAYED_TARGET: S. pyogenes
single step mutation frequency: <3.3 × 10^−10

MOLECULE: CCC[C@@H]1C[C@@H](C(=O)N[C@@H]([C@H]2O[C@H](SC)[C@H](O)[C@@H](O)[C@H]2O)[C@H](C)Cl)N(C)C1
ASSAYED_TARGET: S. pyogenes
single step mutation frequency: <1.0 × 10^−10

MOLECULE: CC[C@H]1OC(=O)[C@@](C)(F)C(=O)[C@H](C)[C@@H](OC2OC(C)CC(N(C)C)C2O)[C@@](C)(OC)C[C@@H](C)C(=O)[C@H](C)[C@H]2N(CCCCn3cc(-c4cccc(N)c4)nn3)C(=O)O[C@]12C (stereo partly shown)
ASSAYED_TARGET: S. pyogenes
single step mutation frequency: <1.3 × 10^−10

Prompt: May I ask what single step mutation frequency has been recorded for CC[C@H]1OC(=O)[C@H](C)C(=O)[C@H](C)[C@@H](O[C@@H]2O[C@H](C)C[C@H](N(C)C)[C@H]2O)[C@](C)(OC)C[C@@H](C)C(=O)[C@H](C)[C@H]2N(CCCCn3cnc(-c4cccnc4)c3)C(=O)O[C@]12C ?
Completion: <2.0 × 10^−10

---

test system: S. pyogenes; assay: microbe, parasite or virus in culture; format: cell-based; settings: Streptococcus pyogenes, read-out: Selected Resistance (MIC), strain 237 Macrolide-R [LA mutation], after serial passages in the drug
MEASUREMENT_NAME: MIC (µg/mL)
Quick reminder: number only, in µg/mL, skip the unit.

A selection of reference data follows.
COMPOUND: CCC[C@@H]1C[C@@H](C(=O)N[C@@H]([C@H]2O[C@H](SC)[C@H](O)[C@@H](O)[C@H]2O)[C@H](C)Cl)N(C)C1 [CLN, clindamycin]
MIC / µg/mL: 0.5
//
COMPOUND: CC[C@H]1OC(=O)[C@H](C)[C@@H](O[C@H]2C[C@@](C)(OC)[C@@H](O)[C@H](C)O2)[C@H](C)[C@@H](O[C@@H]2O[C@H](C)C[C@H](N(C)C)[C@H]2O)[C@](C)(OC)C[C@@H](C)C(=O)[C@H](C)[C@@H](O)[C@]1(C)O [CLR, clarithromycin]
MIC / µg/mL: 1
//
COMPOUND: CC[C@H]1OC(=O)[C@H](C)C(=O)[C@H](C)[C@@H](O[C@@H]2O[C@H](C)C[C@H](N(C)C)[C@H]2O)[C@](C)(OC)C[C@@H](C)C(=O)[C@H](C)[C@H]2N(CCCCn3cnc(-c4cccnc4)c3)C(=O)O[C@]12C [TEL, telithromycin]
MIC / µg/mL: 0.125

Query compound follows.
Prompt: May I ask what MIC has been recorded for CC[C@H]1OC(=O)[C@H](C)[C@@H](O[C@H]2C[C@@](C)(OC)[C@@H](O)[C@H](C)O2)[C@H](C)[C@@H](O[C@@H]2O[C@H](C)C[C@H](N(C)C)[C@H]2O)[C@](C)(O)C[C@@H](C)CN(C)[C@H](C)[C@@H](O)[C@]1(C)O [AZI, azithromycin] ?
Completion: 8

---

system: M. catarrhalis; test: microbe, parasite or virus in culture; assay type: cell-based; conditions: Moraxella catarrhalis
# maps each entry to its MIC90
Quick reminder: number only, in µg/mL, skip the unit.

COMPOUND: CC[C@H]1OC(=O)[C@H](C)[C@@H](O[C@H]2C[C@@](C)(OC)[C@@H](O)[C@H](C)O2)[C@H](C)[C@@H](O[C@@H]2O[C@H](C)C[C@H](N(C)C)[C@H]2O)[C@](C)(O)C[C@@H](C)C(=O)[C@H](C)[C@@H](O)[C@]1(C)O
MEASUREMENT_NAME: MIC90
DATA_VALUE: 0.25

Prompt: May I ask what MIC90 has been recorded for CC[C@H]1OC(=O)[C@H](C)[C@@H](O[C@H]2C[C@@](C)(OC)[C@@H](O)[C@H](C)O2)[C@H](C)[C@@H](O[C@@H]2O[C@H](C)C[C@H](N(C)C)[C@H]2O)[C@](C)(OC)C[C@@H](C)C(=O)[C@H](C)[C@@H](O)[C@]1(C)O ?
Completion: 0.12

Prompt: May I ask what MIC90 has been recorded for CCC[C@@H]1C[C@@H](C(=O)N[C@@H]([C@H]2O[C@H](SC)[C@H](O)[C@@H](O)[C@H]2O)[C@H](C)Cl)N(C)C1 ?
Completion: 2

Prompt: May I ask what MIC90 has been recorded for CC[C@H]1OC(=O)[C@@](C)(F)C(=O)[C@H](C)[C@@H](OC2OC(C)CC(N(C)C)C2O)[C@@](C)(OC)C[C@@H](C)C(=O)[C@H](C)[C@H]2N(CCCCn3cc(-c4cccc(N)c4)nn3)C(=O)O[C@]12C (stereo partly drawn) ?
Completion: 0.12

Prompt: May I ask what MIC90 has been recorded for CC[C@H]1OC(=O)[C@H](C)C(=O)[C@H](C)[C@@H](O[C@@H]2O[C@H](C)C[C@H](N(C)C)[C@H]2O)[C@](C)(OC)C[C@@H](C)C(=O)[C@H](C)[C@H]2N(CCCCn3cnc(-c4cccnc4)c3)C(=O)O[C@]12C ?
Completion: 0.25

Prompt: May I ask what MIC90 has been recorded for CC[C@H]1OC(=O)[C@H](C)[C@@H](O[C@H]2C[C@@](C)(OC)[C@@H](O)[C@H](C)O2)[C@H](C)[C@@H](O[C@@H]2O[C@H](C)C[C@H](N(C)C)[C@H]2O)[C@](C)(O)C[C@@H](C)CN(C)[C@H](C)[C@@H](O)[C@]1(C)O ?
Completion: 0.06
